# maps each entry to its pEC50
# study-system: HIF-2α (Homo sapiens, UniProt Q99814)
# Construct: endogenous in cells
# Sequence (Q99814 whole entry): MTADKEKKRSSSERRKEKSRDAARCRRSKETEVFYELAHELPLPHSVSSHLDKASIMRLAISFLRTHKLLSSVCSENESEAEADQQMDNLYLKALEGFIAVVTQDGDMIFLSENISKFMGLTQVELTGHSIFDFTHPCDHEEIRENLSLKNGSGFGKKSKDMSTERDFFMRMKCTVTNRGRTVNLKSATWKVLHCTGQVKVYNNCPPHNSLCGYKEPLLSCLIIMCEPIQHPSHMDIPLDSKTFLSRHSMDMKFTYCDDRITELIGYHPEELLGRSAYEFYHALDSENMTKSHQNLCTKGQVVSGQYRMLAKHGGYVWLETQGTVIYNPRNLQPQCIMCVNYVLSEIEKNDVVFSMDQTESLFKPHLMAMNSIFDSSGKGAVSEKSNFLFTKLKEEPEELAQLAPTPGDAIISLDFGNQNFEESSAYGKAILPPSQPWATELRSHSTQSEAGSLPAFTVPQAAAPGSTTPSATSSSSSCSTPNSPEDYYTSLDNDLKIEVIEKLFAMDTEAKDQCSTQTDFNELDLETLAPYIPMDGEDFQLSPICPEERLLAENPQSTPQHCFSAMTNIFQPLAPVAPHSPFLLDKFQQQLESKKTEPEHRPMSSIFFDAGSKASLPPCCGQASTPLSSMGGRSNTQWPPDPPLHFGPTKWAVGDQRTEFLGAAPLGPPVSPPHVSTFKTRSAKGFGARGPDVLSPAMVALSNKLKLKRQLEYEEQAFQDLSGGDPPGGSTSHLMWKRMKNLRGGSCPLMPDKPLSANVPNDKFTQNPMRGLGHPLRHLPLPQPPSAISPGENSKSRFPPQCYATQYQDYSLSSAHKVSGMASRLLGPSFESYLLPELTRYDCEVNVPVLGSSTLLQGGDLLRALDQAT
# assay-text: VEGF ELISA assay: VEGF expression in 786-O cells
# experimental-parameters: VEGF concentration in culture medium by ELISA, compounds from 10 uM down to 1 nM, treated twice, medium collected 24 hours after second treatment
As a rule, pEC50 stands for the negative log10 of the concentration, concentration in M.

Reference set, count: 6
[O-][S@@+]1c2c(ccc(Oc3cc(F)cc(Cl)c3)c2C(F)F)[C@H](F)C1(F)F (single isomer, unassigned) [Compound 12a]; 6.07
N#Cc1cc(F)cc(Oc2ccc3c(c2Br)[S+]([O-])C(F)(F)C3(F)F)c1 (stereo not shown); 6.41
N#Cc1cc(F)cc(Oc2ccc3c(c2C(F)F)[S+]([O-])C(F)(F)C3(F)F)c1 (single isomer, unassigned) [Compound 13b]; 6.72
N#Cc1cc(Cl)cc(Oc2ccc3c(c2C(F)F)[S@@+]([O-])C(F)(F)[C@H]3F)c1 (single isomer, unassigned); 6.55
[O-][S+]1c2c(ccc(OC3CC(F)(F)C3)c2C(F)F)C(F)(F)C1(F)F (stereo not shown); 5.57
[O-][S@+]1c2c(ccc(Oc3cc(F)cc(Cl)c3)c2C(F)F)[C@@H](F)C1(F)F (single isomer, unassigned) [Compound 12b]; 6.06

Turning to the following molecule.
Input line: Record lookup: for HIF-2α (Homo sapiens, UniProt Q99814), what pEC50 belongs to `N#Cc1cc(F)cc(Oc2ccc3c(c2C(F)F)S(=O)(=O)C(F)(F)C3(F)F)c1` ?
Output line: 7.57
